- target.under.test: LIM domain kinase 1 (Homo sapiens, UniProt P53667)
- Sequence (P53667 whole entry, the tested form may be a part): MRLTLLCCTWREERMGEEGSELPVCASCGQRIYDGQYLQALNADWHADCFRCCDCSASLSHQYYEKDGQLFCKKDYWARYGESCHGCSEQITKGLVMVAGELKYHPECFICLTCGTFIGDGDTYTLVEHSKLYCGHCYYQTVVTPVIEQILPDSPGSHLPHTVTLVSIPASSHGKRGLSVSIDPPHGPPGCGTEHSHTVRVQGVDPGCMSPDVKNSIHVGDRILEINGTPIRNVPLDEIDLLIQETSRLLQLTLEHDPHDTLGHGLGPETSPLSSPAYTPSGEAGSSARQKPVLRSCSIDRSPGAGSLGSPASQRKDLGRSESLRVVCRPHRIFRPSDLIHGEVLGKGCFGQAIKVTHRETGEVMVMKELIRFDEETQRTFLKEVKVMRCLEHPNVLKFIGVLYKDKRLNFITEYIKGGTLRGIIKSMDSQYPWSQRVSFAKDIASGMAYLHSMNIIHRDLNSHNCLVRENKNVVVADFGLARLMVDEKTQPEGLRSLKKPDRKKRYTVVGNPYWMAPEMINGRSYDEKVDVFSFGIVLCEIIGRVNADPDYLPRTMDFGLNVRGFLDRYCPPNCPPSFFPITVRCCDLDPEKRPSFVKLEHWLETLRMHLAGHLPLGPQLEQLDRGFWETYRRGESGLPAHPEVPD
- procedure.text: Inhibition of LIMK1 in human ZR75-1 cells assessed as inhibition of cofilin phosphorylation after 5 hrs
- Type: cell-based, ZR-75-1
pIC50: −log10 of the molar value.
measure: pIC50

Worked set:
# given.smiles, pIC50
records = [
    ("C[C@@H](Nc1ncc(-c2ccncc2-c2ccccc2Cl)s1)c1ccccc1", 5.68),
    ("C[C@H](Nc1ncc(-c2ccncc2-c2ccccc2Cl)s1)c1ccccc1", 5.04),
    ("COc1ccc(-c2cnccc2-c2cnc(NC(=O)C(C)C)s2)c(C(F)(F)F)c1", 5.70),
    ("CCCNc1ncc(-c2ccncc2-c2ccccc2C(F)(F)F)s1", 5.66),
]

I. CCCNc1ncc(-c2ccncc2-c2ccc(OC)cc2C(F)(F)F)s1
II. CC(C)CNc1ncc(-c2ccncc2-c2ccccc2Cl)s1
Hi team, can someone confirm which has the larger pIC50: I or II ? Thanks. Output the label that corresponds to your choice.
II
(II: 5.82, I: 5.60)

###

- procedure.text: Metabolic stability in mouse liver microsome assessed per gram of tissue
- Assay type: ADME
- details: microsomes
measure: Stability (mL/min)

I. COc1ccc(-c2cnccc2-c2cnc(NC(=O)C(C)C)s2)c(C(F)(F)F)c1
II. Cc1ccc(-c2cnccc2-c2cnc(NC(=O)C(C)C)s2)c(Cl)c1
Hi team, can someone confirm which has the larger Stability: I or II ? Thanks. Output the label that corresponds to your choice.
II

###

- target.under.test: LIM domain kinase 1 (Homo sapiens, UniProt P53667)
- procedure.text: Inhibition of recombinant N-terminal 6His-tagged LIMK1 (unknown origin) expressed in Sf21 cells by HTRF assay using cofilin as a substrate
measure: IC50 (nM)

Worked set:
# given.smiles, target.under.test, measured
rows = [
    ("C=CCNc1nc(N)c(C(=O)c2ccc3c(c2)OCO3)s1", "LIM domain kinase 1 (Homo sapiens, UniProt P53667)", 4000),
    ("CC(C)CNc1ncc(-c2ccncc2-c2ccccc2Cl)s1", "LIM domain kinase 1 (Homo sapiens, UniProt P53667)", 5),
    ("Cc1ccc(-c2cnccc2-c2cnc(NC(=O)C(C)C)s2)c(Cl)c1", "LIM domain kinase 1 (Homo sapiens, UniProt P53667)", 1),
    ("Nc1ncc(-c2ccncc2-c2ccccc2Cl)s1", "LIM domain kinase 1 (Homo sapiens, UniProt P53667)", 270),
    ("C[C@H](Nc1ncc(-c2ccncc2-c2ccccc2Cl)s1)c1ccccc1", "LIM domain kinase 1 (Homo sapiens, UniProt P53667)", 40),
]

1. CCCNc1ncc(-c2ccncc2-c2ccccc2C(C)C)s1
2. CCCNc1ncc(-c2cnccc2-c2ccccc2Cl)s1
3. CCCNc1ncc(-c2ccncc2-c2ccccc2)s1
4. CCCNc1ncc(-c2ccncc2)s1
Ascending by IC50, please: list the molecules accordingly. Please respond by ranking the labels in the order requested.
2, 3, 1, 4

P. CCCNc1ncc(-c2ccncc2-c2ccc(OC)cc2C(F)(F)F)s1
Q. C[C@@H](Nc1ncc(-c2ccncc2-c2ccccc2Cl)s1)c1ccccc1
// compare measured IC50 between P and Q ; output the lower one Output the label that corresponds to your choice.
Q

###

- target.under.test: LIM domain kinase 1 (Homo sapiens, UniProt P53667)
- procedure.text: Inhibition of recombinant N-terminal 6His-tagged LIMK1 (unknown origin) expressed in Sf21 cells by HTRF assay using cofilin as a substrate
measure: IC50 (nM)

Worked set:
# given.smiles, measured
measured = [
    ("CCCNc1ncc(-c2ccncc2-c2cccc(Cl)c2)s1", 500),
    ("CC(C)C(=O)Nc1ncc(-c2ccncc2-c2ccccc2Cl)s1", 3),
    ("CCCN(C)c1ncc(-c2ccncc2-c2ccccc2Cl)s1", 3100),
]

1. CC(=O)Nc1ncc(-c2ccncc2-c2ccccc2Cl)s1
2. CCCNc1ncc(-c2ccncc2-c2ccccc2C(F)(F)F)s1
// compare measured IC50 between 1 and 2 ; output the lower one Output the label that corresponds to your choice.
1
(1: 20 nM, 2: 37 nM)

A. CCCNc1ncc(-c2ccncc2-c2ccccc2Cl)s1
B. Clc1ccccc1-c1cnccc1-c1cnc(Nc2ccccc2)s1
C. CCCNc1ncc(-c2ccncc2-c2ccccc2C)s1
D. CCCNc1ncc(-c2ccncc2-c2ccc(Cl)cc2)s1
Put the items in sequence by IC50, from largest down. Please respond by ranking the labels in the order requested.
D, C, A, B

P. CCNc1ncc(-c2ccncc2-c2ccccc2Cl)s1
Q. CCCNc1ncc(-c2cccnc2-c2ccccc2Cl)s1
Hi team, can someone confirm which has the larger IC50: P or Q ? Thanks. Output the label that corresponds to your choice.
Q
(Q: 327 nM, P: 120 nM)
